Target: HLA-B*44:02
Assay: IEDB peptide-MHC binding, purified MHC/direct/fluorescence; filed as Kd, often an IC50 or EC50 that approximates it; bounds were set here for any values at or beyond the usual limits of such assays
Conditions: source organism: Escherichia coli O157:H7
pKd: −log10 of the molar value.

residue-string: IAIPAHVRL
pKd: ≤ 4.70

* * *

The entries below are paired with their reported pKd.
Target: HLA-A*24:02
Experiment: IEDB peptide-MHC binding, purified MHC/competitive/radioactivity; filed as Kd, often an IC50 or EC50 that approximates it; bounds were set here for any values at or beyond the usual limits of such assays
Conditions: source organism: Dengue virus 4 Philippines/H241/1956
pKd: −log10 of the molar value.
readout-type: pKd

residue-string: LWVAEIQPQW
measured-result: 6.51
--
residue-string: LWPKTHTLW
measured-result: 7.35
